- System: CCRF-CEM leukemia
- test.method.notes: NCI tumour cell line growth inhibition, 48 h; in the data active = GI50 below about 0.43 µM; inactive = the rest
Outcome codes: true (1) (active), false (0) (inactive)

compound	answer.label
O=C(Nc1ccc(OC(F)(F)F)cc1)c1sccc1NCc1ccnc2ccccc12	false (0)
CCN1CCN(Cc2ccc(NC(=O)Nc3ccc(-n4ccc5c(NC(=O)c6ccccc6)nccc54)cc3)cc2C(F)(F)F)CC1	true (1)
N/C(=N\OC(=O)c1ccccc1)C(C(=O)NOC(=O)c1ccccc1)C1CCCCC1 (centres undefined)	false (0)
COC(=O)C1=C(OC(=O)c2ccc(Cl)cc2)C(C(=O)OC)[C@@]2(O)[C@@H](C(=O)OC)C(c3ccccc3C(F)(F)F)C[C@@H]1[C@@H]2C(=O)OC (some centres undefined)	false (0)
COc1ccc(Cl)cc1Nc1nc(C(F)(F)F)ccc1C(=O)NN	true (1)
COc1ccc(-c2cc(-c3ccc(Cl)cc3)c(C#N)c(=O)n2CCCCC(=O)Nc2ccccc2N)cc1	false (0)
CC(=O)c1cccc(N(/C=C/C(=O)C(F)(F)F)CC(=O)c2ccc(Cl)cc2)c1	false (0)
CC(C)N(C(C)C)[PH+]1O[PH+](N(C(C)C)C(C)C)O[PH+](N(C(C)C)C(C)C)O[PH+](N(C(C)C)C(C)C)O[PH+](N(C(C)C)C(C)C)O1.[C-]#[O+].[C-]#[O+].[C-]#[O+].[C-]#[O+].[C-]#[O+].[C-]#[O+].[C-]#[O+].[Cr].[Cr] (centres undefined)	false (0)
S=C(N/N=C/c1cc(Cl)cc(Cl)c1)NC12CC3CC(CC(C3)C1)C2	false (0)

###

- System: UO-31 renal
- test.method.notes: NCI tumour cell line growth inhibition, 48 h
Entries and their TGI values follow.
recorded.metric: TGI

> print(dat)
                                    compound  value.observed
 1                     N=C(N)SCc1cn2ccccc2n1        > 100 µM
 2     Cc1cc(C)c2c(c1)CN1CN2Cc2cc(C)cc(C)c21         43.5 µM
 3  COC(=O)c1ccc2c(c1)C(NC(C)=O)CCc1cc(OC)c(OC)c(OC)c1-2 (configuration not stated)         > 81 µM
 4  O=C1[C@@H](c2ccc(Cl)cc2)[C@H]2CC=C[C@H]2N1O        > 100 µM
 5  COC(=O)c1nc(NN)[nH]c(=O)c1CCCCCc1c(C(=O)OC)[nH]c(NN)cc1=O        > 100 µM
 6  NC(N)=NS(=O)(=O)c1ccc(NC(=O)c2cccc3c(NNc4ccc(S(N)(=O)=O)cc4)c4ccccc4nc23)cc1        > 100 µM
 7         Cc1c(C)c2cc3c(=O)ccoc3c(C)c2oc1=O        > 100 µM
 8  Clc1cc(C(c2cc(Cl)sc2Cl)c2cc(Cl)sc2Cl)c(Cl)s1        > 100 µM
 9  COc1ccc(C2=C(Cl)C(=O)O/C2=C\c2ccc(OC)c(Br)c2)cc1Cl        > 100 µM
10  COCC#C[C@@]1(O)CCCCC1CC(OC)OC (some centres not stated)        > 100 µM
11  O=P(OCc1ccccc1)(OCc1ccccc1)C(O)/C=C/c1ccccc1 (configuration not stated)         80.3 µM
12  O=C(CCc1nc(=S)[nH][nH]1)NC12CC3CC(CC(C3)C1)C2        > 100 µM

###

# TGI values compiled below
- Test system: T-47D breast
- test.method.notes: NCI tumour cell line growth inhibition, 48 h
recorded.metric: TGI

> print(dat)
                                   compound  value.observed
1  COCC#C[C@@]1(O)CCCCC1CC(OC)OC (stereo partly drawn)        > 100 µM
2       N#Cc1nc(CCCN2C(=O)c3ccccc3C2=O)oc1N        > 100 µM
3  CC[C@H](C)[C@H](NC(=O)c1cnccn1)C(=O)N(C)[C@H](C[C@@H](OC(C)=O)c1nc(C(=O)N[C@@H](Cc2ccccc2)C[C@H](C)C(=O)OC)cs1)C(C)C       > 33.3 µM
4  CNC(=O)Nc1ccc(-c2nc(N3CCOCC3)nc3c2cnn3C2CCOCC2)cc1        0.341 µM
5  COc1cc(OC)cc(Oc2nc3cc(F)c(F)cc3nc2-c2ccccc2)c1        > 100 µM
6  Cc1cc2c(C(C)C)c(O)c(O)c(C=Nc3cc(C(F)(F)F)ccc3Cl)c2c(O)c1-c1c(C)cc2c(C(C)C)c(O)c(O)c(C=Nc3cc(C(F)(F)F)ccc3Cl)c2c1O        > 100 µM
7  COc1cc(/C=C2\CN(C)CC3=C2Nc2nc(SC)[nH]c(=O)c2C3c2cc(OC)c(OC)c(OC)c2)cc(OC)c1OC (stereo not drawn)         22.6 µM
8  N#C/C(=C\c1cccc(Br)c1)c1nc2ccccc2c(=O)[nH]1        > 100 µM

###

In this section we review reported GI50 values for a set of molecules.
- Test system: HL-60(TB) leukemia
- test.method.notes: NCI tumour cell line growth inhibition, 48 h
recorded.metric: GI50

> print(dat)
                                 mol.smiles  value.observed
1  COc1cc2cc(Oc3ccc(NC(=O)c4cccc(C(F)(F)F)c4)cc3)c(C)nc2cc1OC         3.84 µM
2  C[n+]1cc2c3c(ccc2c2ccc4cc5c(cc4c21)OCO5)OCO3        0.445 µM
3  C/C(=N\O)c1ccc(Nc2cc(-n3nnc4ccccc43)nc3ccccc23)cc1         10.6 µM
4      COc1ccc(-n2nnc3c(sc4ccccc43)c2=O)cc1        > 100 µM
5      CS(=O)(=O)c1ccc(Cl)c([N+](=O)[O-])c1         19.7 µM
6  CNC(=O)Nc1ccc(-c2nc(N3CCOCC3)nc3c2cnn3C2CCOCC2)cc1         1.01 µM
7  CCN1CCN(Cc2ccc(NC(=O)Nc3ccc(-n4ccc5c(NC(=O)c6ccccc6)nccc54)cc3)cc2C(F)(F)F)CC1         1.71 µM

###

- Tested on: CCRF-CEM leukemia
- test.method.notes: NCI tumour cell line growth inhibition, 48 h
recorded.metric: TGI (µM)

> print(dat)
                                   molecule  recorded.metric  inequality.sign  value.observed
1  COc1ccc2c(c1)-c1c(c3cc(OC)ccc3n1CCN(C)C)CC2              TGI                =            26.4
2  CC1(C)C(=O)C(O)=CC2C1=CCC1C2(C)C(=O)CC2(C)C(C(C)(O)C(=O)CC(O)C(C)(C)O)C(O)CC12C (stereo not given)              TGI                =              12
3   Cc1nc(SCC(N)=O)c2sc(=S)n(-c3ccccc3)c2n1              TGI                >              10
4  COC(=O)C1=C(C)NC(C)=C(C(=O)OC)C1c1cccc(N=O)c1              TGI                >             100
5  C=C1C(=O)O[C@@H]2C[C@@]3(C)CC(=O)C=C(C)[C@@H]3C[C@H]12              TGI                >             100

###

Here the recorded TGI is given for each entry.
- Test system: LOX IMVI melanoma
- test.method.notes: NCI tumour cell line growth inhibition, 48 h
recorded.metric: TGI

compound	value.observed
C[C@H](c1ccccc1)N1C(=O)[C@@H](OCc2ccccc2)[C@H]1[C@H](COC(=O)COCc1ccccc1)OCc1ccccc1	> 100 µM
COC(=O)C1=CCON(c2ccccc2)C1c1ccccc1 (stereo not given)	> 100 µM
Nc1nncc2[nH]cnc12	> 100 µM
C=C1C[C@@H]2CC[C@@]34C[C@H]5O[C@H]6[C@@H](O3)[C@H]3O[C@H](CC[C@@H]3O[C@H]6[C@H]5O4)CC(=O)C[C@@H]3[C@@H](OC)[C@@H](C[C@H](O)CN)O[C@H]3C[C@H]3O[C@@H](CC[C@@H]1O2)C[C@@H](C)C3=C	> 0.533 µM
C[n+]1cc2c3c(ccc2c2ccc4cc5c(cc4c21)OCO5)OCO3	0.411 µM
CN(C)CCCNc1cc(O)c2c(c1O)C(=O)c1ccccc1C2=O	24.8 µM
O=C1CC(c2ccccc2Cl)C2(C(=O)NC(=O)NC2=O)C(c2ccccc2Cl)C1 (stereo not given)	> 100 µM
Cc1nnc2n1-c1ccccc1N(Cc1ccccc1)CC2	> 100 µM
COc1cc2c3c(cc(Cl)nc3c1OC)C(=O)C(=O)N2	25.9 µM
CCCCCCCCCCCCNC(=O)CCC(NC(=O)c1ccc(N(C)Cc2cnc3nc(N)nc(N)c3n2)cc1)C(=O)NCCCCCCCCCCCC (stereo not given)	30.7 µM
N#CC(C#N)SCc1ccccc1	> 19.8 µM
C=C1C(=O)O[C@@H]2C[C@@]3(C)CC(=O)C=C(C)[C@@H]3C[C@H]12	38.1 µM
COc1ccc(C2C(Cl)C(=O)N2n2cnc3ccccc3c2=O)cc1OC (stereo not given)	> 100 µM
O=c1c(-c2ccccc2)c(SCCN2CCCCCC2)n(-c2ccccc2)c(=S)n1-c1ccccc1	> 100 µM
O=C(/C=C\Nc1ccccc1O)C(F)(F)F	> 100 µM
CSc1nc2c(c(O)c(C)c(=O)n2C2OC(COC(C)=O)C(OC(C)=O)C(OC(C)=O)C2OC(C)=O)c(=O)n1C (stereo not given)	> 100 µM
COc1cc(-c2csc(NC(=O)c3cc(C(F)(F)F)cc(C(F)(F)F)c3)n2)cc(OC)c1OC	> 100 µM
O=C1NC(=S)NC(=O)C1C(c1ccc(Cl)cc1)C1C(=O)NC(=S)NC1=O	> 100 µM
COc1ccc(OC)c(NC(=O)C(=O)C(C(=O)c2ccccc2F)C2OC(=O)c3ccccc32)c1 (stereo not given)	> 100 µM
Cn1cc(C2=C(c3cn(C)c4ccc(N)cc34)C(=O)NC2=O)c2ccccc21	> 25 µM
